Target: human 5-HT2A receptor (Homo sapiens)
Parameters: species or system SH-SY5Y expressing human 5-HT2A
Conditions: agonist
ASSAY_METRIC: Ca2+ Emax
Please give the numeric answer without any surrounding text.

If you can, please state the reported Ca2+ Emax value of CN(C)CCc1c[nH]c2cccc(O)c12 . 0.40

Let us now turn to COc1ccc2c3c([nH]c2c1)CCN(C)CC3 0.13

Also check COc1ccc2[nH]cc(CCN(C)C)c2c1 0.73

What would you report for COc1cc(CCNCc2ccccc2OC)c(OC)cc1Br [25B-NBOMe] ? 0.57

Try this compound next: COc1cc(CC(C)N)c(OC)cc1I (stereo not shown) 0.49

And what about the compound COc1cc(CCN)cc(OC)c1OC ? 0.47

What do you have for CCN(CC)C(=O)[C@@H]1C=C2c3cccc4[nH]cc(c34)C[C@H]2N(C)C1 ? 0.36

----------
Biological target: human 5-HT2A receptor (Homo sapiens, UniProt P28223)
Sequence (P28223 whole entry): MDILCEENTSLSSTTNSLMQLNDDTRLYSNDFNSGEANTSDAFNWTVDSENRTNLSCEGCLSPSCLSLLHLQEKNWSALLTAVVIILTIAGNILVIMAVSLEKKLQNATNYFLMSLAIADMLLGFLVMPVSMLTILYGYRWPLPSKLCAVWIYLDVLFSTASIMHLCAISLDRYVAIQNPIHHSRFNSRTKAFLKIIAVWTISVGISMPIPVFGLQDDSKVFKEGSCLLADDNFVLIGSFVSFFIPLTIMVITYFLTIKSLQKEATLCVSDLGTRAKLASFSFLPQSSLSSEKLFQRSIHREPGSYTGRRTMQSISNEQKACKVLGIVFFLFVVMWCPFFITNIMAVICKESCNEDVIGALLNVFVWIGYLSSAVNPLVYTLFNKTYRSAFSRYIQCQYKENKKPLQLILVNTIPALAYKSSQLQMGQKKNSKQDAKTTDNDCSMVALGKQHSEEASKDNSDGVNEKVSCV
Parameters: species or system SH-SY5Y expressing human 5-HT2A
Conditions: agonist
Kind request: treat 0.8 as inclusive, so IP1 Emax at 0.8 or higher is Yes, anything lower is No.

Assess whether reported IP1 Emax for COc1ccc2[nH]cc(CCN(C)C)c2c1 sits at 0.8 or higher. Yes

Here is the next molecule: COc1cc(CCNCc2ccccc2OC)c(OC)cc1Br [25B-NBOMe] No

Also COc1cc(CC(C)N)c(OC)cc1I (stereo not shown) ? Yes

Proceed to COc1ccc2c3c([nH]c2c1)CCN(C)CC3 No

----------
Molecular target: UniProt P28223
Parameters: species or system SH-SY5Y expressing human 5-HT2A
Settings: agonist
ASSAY_METRIC: β-arrestin2 Emax
Lab note: write the figure by itself, no unit.

Would you mind telling me what β-arrestin2 Emax value was observed for COc1cc(CC(C)N)c(OC)cc1I (stereo not drawn) ? 0.73

Try the molecule COc1cc(CCNCc2ccccc2OC)c(OC)cc1Br [25B-NBOMe] 0.88

Please give the result for COc1ccc2c3c([nH]c2c1)CCN(C)CC3 too. 0.19

// repeat for COc1ccc2[nH]cc(CCN(C)C)c2c1 and report 0.70

Similarly, CN(C)CCc1c[nH]c2cccc(O)c12 ? 0.28

Request: COc1cc(CCN)cc(OC)c1OC 0.64

----------
Molecular target: rat 5-HT2A receptor (Rattus norvegicus, UniProt P14842)
Sequence (P14842 whole entry): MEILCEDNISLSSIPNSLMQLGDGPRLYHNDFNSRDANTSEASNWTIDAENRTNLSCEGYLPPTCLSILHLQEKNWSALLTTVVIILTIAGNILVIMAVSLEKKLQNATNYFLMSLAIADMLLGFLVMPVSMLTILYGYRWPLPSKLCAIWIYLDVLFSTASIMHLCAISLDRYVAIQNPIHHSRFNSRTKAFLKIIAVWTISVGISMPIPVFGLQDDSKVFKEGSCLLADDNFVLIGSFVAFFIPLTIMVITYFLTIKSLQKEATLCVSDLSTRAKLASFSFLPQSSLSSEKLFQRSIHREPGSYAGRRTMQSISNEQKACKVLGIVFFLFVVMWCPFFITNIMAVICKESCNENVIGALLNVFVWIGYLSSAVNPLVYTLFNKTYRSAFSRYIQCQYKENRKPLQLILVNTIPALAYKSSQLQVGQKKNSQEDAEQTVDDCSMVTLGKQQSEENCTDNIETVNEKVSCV
ASSAY_METRIC: pEC50
Just so you know, pEC50 here is -log10 of the concentration in molar units; reply with that number alone.

Please provide the recorded pEC50 for COc1ccc2[nH]cc(CCN(C)C)c2c1 [5-MeO-DMT, 5-methoxy-N,N-dimethyltryptamine] , tested on rat 5-HT2A receptor (Rattus norvegicus, UniProt P14842). 6.62

# repeat for COc1cc(CCN)cc(OC)c1OC [Mescaline, 3,4,5-trimethoxyphenethylamine] 6.53

----------
Target: human 5-HT2A receptor (Homo sapiens, UniProt P28223)
Set-up: species or system SH-SY5Y expressing human 5-HT2A
Settings: agonist
ASSAY_METRIC: IP1 Emax
API doc: respond with a numeric literal and nothing else, no unit.

What IP1 Emax value was documented for this molecule, CCN(CC)C(=O)[C@@H]1C=C2c3cccc4[nH]cc(c34)C[C@H]2N(C)C1 ? 0.78

CN(C)CCc1c[nH]c2cccc(O)c12 , same question. 0.80

Record: COc1cc(CCN)cc(OC)c1OC 0.81
